Experiment: ATG_DR4_LXR_CIS: Attagene CIS-FACTORIAL HepG2 Assay for human Liver X Receptor (LXR), DR4 submotif (AID 2282929)
Details: HepG2 Attagene DR4 cis-reporter, mRNA transcription; actives raise or lower the signal
Procedure: ATG_CIS is a cell-based, multiplexed-readout assay that uses HepG2, a human liver cell line, with measurements taken at 24 hours after chemical dosing in a 24-well plate.ATG_DR4_LXR_CIS is one of 52 assay component(s) measured or calculated from the ATG_CIS assay. […] This assay endpoint, ATG_DR4_LXR_CIS, was analyzed with bidirectional fitting relative to DMSO as the negative control and baseline of activity. […]
Calls of active or inactive are those of the source. Rule for the calls: active = hit-call score of the fitted dose curve at least 0.9, where 1 is the maximum; inactive = score below 0.9.
Labels: active, inactive

compound=C[C@]12C[C@H](O)[C@H]3[C@@H](CCC4=CC(=O)CC[C@@]43C)[C@@H]1CC[C@@H]2C(=O)CO assigned_label=inactive
compound="CCCCCCC(C)OC(=O)COc1nc(F)c(Cl)c(N)c1Cl (stereo not given)" assigned_label=inactive
compound=COC(=O)c1cccc(C)c1S(=O)(=O)NC(=O)Nc1nc(OCC(F)(F)F)nc(N(C)C)n1 assigned_label=inactive
compound=O=C(O)C1(C(=O)Nc2ccc(Cl)cc2Cl)CC1 assigned_label=inactive
compound=CCOC(=O)NCCOc1ccc(Oc2ccccc2)cc1 assigned_label=active

Origin of values: PubChem BioAssay (EPA / NIEHS)
